Tested on: T47D cells
Test: Cellular growth inhibition assay for T47D cells, CellTiter-Glo
Format: cell-based, human
Conditions: Homo sapiens, 72 hours treatment, CellTiter-Glo 2.0
Protocol: T47D cells were purchased from American Type Cell Culture (ATCC Cat #HTB-133) and then seeded on poly-D-lysine coated, black clear-bottom 384-well plates at 3000/well in 25 μL Dulbecco's Modified Eagle Medium (DMEM) supplemented with 10% w/w Fetal bovine serum (FBS), 0.2 units/mL recombinant human insulin (Gibco Cat #12585014), and 1% w/w Pen-Strep. […] At the end of the treatment duration, cell viability was quantified with CellTiter-Glo 2.0 reagent (Promega Cat #G9243). […]
outcomeMeasure: GI50

GI50 recorded for this molecule, CCS(=O)(=O)Cc1ccc(Oc2cccc(OCCOC3CCN(c4ncc(C(=O)N[C@H]5CC[C@H](Oc6ccc(C#N)c(Cl)c6)CC5)cn4)CC3)c2)c(-c2cn(C)c(=O)c3[nH]ccc23)c1 [I-152] , is < 0.5 µM

Record summary for CCS(=O)(=O)c1ccc(Oc2ccc(CC3CCN(c4ccc(C(=O)N[C@H]5CC[C@H](Oc6ccc(C#N)c(Cl)c6)CC5)nn4)CC3)c(F)c2)c(-c2cn(C)c(=O)c3[nH]ccc23)c1 [I-80] : reported GI50 = < 0.5 µM

Lab note: CCS(=O)(=O)c1ccc(Oc2ccc(C(C)(C)N3CC4(CN(c5ccc(C(=O)N[C@H]6CC[C@H](Oc7ccc(C#N)c(Cl)c7)CC6)nn5)C4)C3)cc2)c(-c2cn(C)c(=O)c3[nH]ccc23)c1 [I-88] gave GI50 of < 0.5 µM
